test: qHTS for Inhibitors of human tyrosyl-DNA phosphodiesterase 1 (TDP1): qHTS in cells in absence of CPT; conditions: DT40 Tdp1-/- hTDP1 cells, no CPT, ATP luminescence, 48 h; further: nearly all actives have a fitted effect of over 55% in size; further: potency means the concentration at half of the fitted maximal effect
The campaign covered roughly 420,000 compounds. About 64,000 (15%) were called active. Inconclusive results (about 27%) are left out. Not all results are given here.
OBSERVABLE: Potency

Worked cases, answers included:
{"COMPOUND": "CCOc1ccc(C(=O)Nc2nccs2)cc1[N+](=O)[O-]", "VALUE MEASURED": "inactive"}
{"COMPOUND": "CN(C)c1ccc(/C=N/Nc2cc(N3CCOCC3)nc(N3CCOCC3)n2)cc1", "VALUE MEASURED": "inactive"}
{"COMPOUND": "C(=N/Nc1cc(N2CCOCC2)nc(N2CCOCC2)n1)/c1ccccc1", "VALUE MEASURED": "20.6 µM (active)"}
{"COMPOUND": "OCCC1CN(Cc2ccc3nsnc3c2)CCN1C1CCCCC1 (stereo unspecified)", "VALUE MEASURED": "inactive"}
{"COMPOUND": "Cc1nc(SCc2ccc(F)cc2)c([N+](=O)[O-])[nH]1", "VALUE MEASURED": "inactive"}

Moving on to the next compound.
Output Potency of CCCCOc1ccc(CON(C(C)=O)C(C)=O)cc1Cl
inactive
